Listed here are compounds together with their documented Bliss excess.
Test system: PC-3 (Prostate Carcinoma);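 also: after 72 h of two-drug dosing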
Assay: Bliss excess, mean over the matrix (fraction); higher = more synergy
Reported Metric: Bliss excess

>  <Compound>
C=CCn1c(=O)c2cnc(Nc3ccc(N4CCN(C)CC4)cc3)nc2n1-c1cccc(C(C)(C)O)n1 [AZD1775] + C1CN(CCC1(C(=O)N[C@@H](CCO)C2=CC=C(C=C2)Cl)N)C3=NC=NC4=C3C=CN4 [Capivasertib] (first compound max 3 µM, partner max 3 µM)

>  <Experimental Value>
-0.0617

$$$$
>  <Compound>
Cc1cc2ncnn2cc1Nc1ncc2c(n1)n(C1CCOCC1)c(=O)n2C [AZD7648] + C[C@@H]1COCCN1C2=NC(=NC(=C2)C3(CC3)[S@](=N)(=O)C)C4=C5C=CNC5=NC=C4 [AZD6738] (first compound max 10 µM, 7x7, partner max 10 µM)

>  <Experimental Value>
-0.0161

$$$$
>  <Compound>
CC(=O)c1c(C)c2cnc(Nc3ccc(N4CCNCC4)cn3)nc2n(C2CCCC2)c1=O [Palbociclib] + CN(CC[C@H](CSC1=CC=CC=C1)NC2=C(C=C(C=C2)S(=O)(=O)NC(=O)C3=CC=C(C=C3)N4CCC(CC4)[C@H](C5=CC=CC=C5C6=CC=C(C=C6)Cl)O)S(=O)(=O)C(F)(F)F)CCO [AZD4320] (first compound max 10 µM, 7x7, partner max 1 µM)

>  <Experimental Value>
-0.0472

$$$$
